Below, each of the compounds is paired with its reported pEC50 value.
# testedTarget: UniProtKB P49286
# Sequence (P49286 whole entry): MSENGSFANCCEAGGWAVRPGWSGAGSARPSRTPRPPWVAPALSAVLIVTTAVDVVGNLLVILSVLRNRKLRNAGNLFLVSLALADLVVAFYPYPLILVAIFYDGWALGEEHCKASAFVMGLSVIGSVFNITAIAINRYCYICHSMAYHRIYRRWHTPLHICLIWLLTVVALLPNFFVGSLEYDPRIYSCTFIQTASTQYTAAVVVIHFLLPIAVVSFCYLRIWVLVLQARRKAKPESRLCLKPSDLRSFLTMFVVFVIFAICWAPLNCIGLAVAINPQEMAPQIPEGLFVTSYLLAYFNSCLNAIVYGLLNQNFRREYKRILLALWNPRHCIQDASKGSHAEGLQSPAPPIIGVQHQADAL
# measurementProtocol: Intrinsic activity at human Melatonin receptor type 1B evaluated on [35S]GTP-gamma-S, binding in Chinese hamster ovarian (CHO) cells
Value format note: pEC50 is -log10 of concentration (mol/L); just state the number.

Observe how each entry below is paired with its result.
[
  {
    "smilesStr": "C=CCC(=O)NCCc1c(Cc2ccccc2)oc2ccc(OC)cc12",
    "recordedMeasurement": 9.77
  },
  {
    "smilesStr": "CCc1ccc2oc(Cc3cccc(OC)c3)c(CCNC(C)=O)c2c1",
    "recordedMeasurement": 7.72
  },
  {
    "smilesStr": "COc1ccc2oc(-c3ccccc3)c(CCNC(C)=O)c2c1",
    "recordedMeasurement": 10.02
  }
]

Prompt: I'm curious: which pEC50 was measured for COc1ccc2oc(Cc3ccccc3OC)c(CCNC(C)=O)c2c1 tested on UniProtKB P49286?
Response: 9.39

Prompt: Thanks! And C=CCC(=O)NCCc1c(Cc2cccc(OC)c2)oc2ccc(OC)cc12 ?
Response: 9.41

Prompt: Continue with COc1ccc2oc(Cc3cccc(C(F)(F)F)c3)c(CCNC(C)=O)c2c1
Response: 8.90

Prompt: // repeat for COc1cccc(Cc2oc3ccc(OC)cc3c2CCNC(C)=O)c1 and report
Response: 9.14

Prompt: Input COc1ccc2oc(CC3CCCCC3)c(CCNC(C)=O)c2c1
Response: 8.00
